These entries and their values trace back to ChEMBL document CHEMBL6103607.

- SYSTEM UNDER TEST: Amyloid-beta precursor protein (Homo sapiens)
- Sequence (P05067 whole entry): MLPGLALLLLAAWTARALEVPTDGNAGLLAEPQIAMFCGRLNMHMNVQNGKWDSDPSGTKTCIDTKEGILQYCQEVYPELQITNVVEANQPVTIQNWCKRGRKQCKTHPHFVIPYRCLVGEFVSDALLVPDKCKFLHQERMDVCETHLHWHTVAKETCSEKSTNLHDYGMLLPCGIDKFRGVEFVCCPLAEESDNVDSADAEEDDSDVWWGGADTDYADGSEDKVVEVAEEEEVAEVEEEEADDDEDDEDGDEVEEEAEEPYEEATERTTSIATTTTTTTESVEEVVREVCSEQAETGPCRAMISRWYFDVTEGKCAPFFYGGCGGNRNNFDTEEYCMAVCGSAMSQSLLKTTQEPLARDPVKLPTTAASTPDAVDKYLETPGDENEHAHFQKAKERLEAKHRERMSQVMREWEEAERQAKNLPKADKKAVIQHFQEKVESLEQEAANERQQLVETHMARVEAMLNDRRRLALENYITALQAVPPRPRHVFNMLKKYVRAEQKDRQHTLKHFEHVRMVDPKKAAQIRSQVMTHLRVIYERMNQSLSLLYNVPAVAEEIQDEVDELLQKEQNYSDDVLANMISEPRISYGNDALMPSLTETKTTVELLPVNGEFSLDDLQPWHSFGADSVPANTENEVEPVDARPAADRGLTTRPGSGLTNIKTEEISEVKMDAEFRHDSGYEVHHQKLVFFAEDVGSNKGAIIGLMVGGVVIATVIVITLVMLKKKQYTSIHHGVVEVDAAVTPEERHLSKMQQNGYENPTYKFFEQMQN
RECORDED METRIC: Ki (µM)
Field: numeric (µM). Do not append units.

entry_smiles=C[C@H]1CN(c2ccccn2)CCN1c1ncc(NC(=O)c2ccc(-n3cccn3)nc2)cn1 measured=10.8
entry_smiles=Cc1ccc(N2C[C@@H](C)N(c3ncc(NC(=O)c4ccc(-c5cncc(F)c5)nc4)cn3)[C@@H](C)C2)nc1 measured=12

Could you now consider this next compound?
Case C[C@H]1CN(c2ccc(F)cn2)CCN1c1ncc(NC(=O)c2ccc(N3CC[C@@H](F)C3)nc2)cn1 , Amyloid-beta precursor protein (Homo sapiens), Ki recorded as 12
